- Experiment Description: In-vivo absorbency (plasma concentrations & pharmacokinetic parameters)
- Design: species or system SD rat (male)
- Setup Conditions: rat, in vivo, iv, 20 mg/kg

| Molecule | concentration at 10 min / µg/mL |
| --- | --- |
| CC(C)(O/N=C(\C(=O)N[C@@H]1C(=O)N2C(C(=O)[O-])=C(C[n+]3ccccc3)CS[C@H]12)c1csc(N)n1)C(=O)O [Ceftazidime, reference compound] | 53 |

---

Form field: AUC (one value per entry).
- Experiment Description: In-vivo absorbency (plasma concentrations & pharmacokinetic parameters)
- Design: species or system SD rat (male)
- Setup Conditions: plasma; SD male rat, iv 20 mg/kg; two compartment model
- Text: The blood samples from the femoral vein of the rats were taken every hour after administration, and analyzed by bio-assay(agar well method). Tested animal: SD male Rat (220~340 g)

| Compound | Uom | AUC |
| --- | --- | --- |
| Cc1c(N)nc(SCC2=C(C(=O)[O-])N3C(=O)C(NC(=O)/C(=N\OC(C)(C)C(=O)O)c4csc(N)n4)C3SC2)[n+](C)c1N (stereo not drawn) | ng·h/mL | 41800 |
| C[n+]1c(N)cc(N)nc1SCC1=C(C(=O)[O-])N2C(=O)C(NC(=O)/C(=N\OC(C)(C)C(=O)O)c3csc(N)n3)[C@H]2SC1 (stereo partly drawn) | ng·h/mL | 35300 |
| Cc1c(N)nc(SCC2=C(C(=O)[O-])N3C(=O)C(NC(=O)/C(=N\OC(C)(C)C(=O)O)c4csc(N)n4)C3SC2)[n+](N)c1N (stereo not drawn) | ng·h/mL | 37200 |

---

- Experiment Description: In-vivo absorbency (plasma concentrations & pharmacokinetic parameters)
- Design: species or system SD rat (male)
- Setup Conditions: plasma; 10 min; SD male rat, iv 20 mg/kg; read-out: Plasma Conc.
Quick rule for you: concentration at 10 min under 50000 ng/mL gets met, anything else gets not met.

| Compound | Category Label |
| --- | --- |
| CCc1c(N)nc(SCC2=C(C(=O)[O-])N3C(=O)C(NC(=O)/C(=N\OC(C)(C)C(=O)O)c4csc(N)n4)C3SC2)[n+](CC)c1N (centres unmarked) | met |
| CC(C)(O/N=C(\C(=O)NC1C(=O)N2C(C(=O)[O-])=C(CSc3nc(N)cc(N)[n+]3N)CS[C@H]12)c1csc(N)n1)C(=O)O (some centres unmarked) | not met |
| CC(O/N=C(\C(=O)NC1C(=O)N2C(C(=O)[O-])=C(CSc3nc(N)cc(N)[n+]3C)CSC12)c1csc(N)n1)C(=O)O (centres unmarked) | met |
| Cc1c(N)nc(SCC2=C(C(=O)[O-])N3C(=O)C(NC(=O)/C(=N\OC(C)(C)C(=O)O)c4csc(N)n4)C3SC2)[n+](N)c1N (centres unmarked) | met |
| CC[n+]1c(N)cc(N)nc1SCC1=C(C(=O)[O-])N2C(=O)C(NC(=O)/C(=N\OCC(=O)O)c3csc(N)n3)C2SC1 (centres unmarked) | met |
| C[n+]1c(N)cc(N)nc1SCC1=C(C(=O)[O-])N2C(=O)C(NC(=O)/C(=N\OC(C)(C)C(=O)O)c3csc(N)n3)[C@H]2SC1 (some centres unmarked) | met |
| Cc1c(N)nc(SCC2=C(C(=O)[O-])N3C(=O)C(NC(=O)/C(=N\OC(C)(C)C(=O)O)c4csc(N)n4)C3SC2)[n+](C)c1N (centres unmarked) | not met |
| CCC[n+]1c(N)cc(N)nc1SCC1=C(C(=O)[O-])N2C(=O)C(NC(=O)/C(=N\OC(C)C(=O)O)c3csc(N)n3)C2SC1 (centres unmarked) | not met |

---

MIC data for Escherichia coli ATCC 10536 follow.

| Compound | Assayed System | MIC |
| --- | --- | --- |
| C=CC[n+]1c(N)cc(N)nc1SCC1=C(C(=O)[O-])N2C(=O)C(NC(=O)/C(=N\OCC)c3nsc(N)n3)C2SC1 (centres unmarked) | Escherichia coli ATCC 10536 | 0.5 µg/mL |
| CCC[n+]1c(N)cc(N)nc1SCC1=C(C(=O)[O-])N2C(=O)C(NC(=O)/C(=N\OC(C)C(=O)O)c3csc(N)n3)C2SC1 (centres unmarked) | Escherichia coli ATCC 10536 | 0.063 µg/mL |
| CCO/N=C(\C(=O)NC1C(=O)N2C(C(=O)[O-])=C(CSc3nc(N)cc(N)[n+]3CC)CSC12)c1nsc(N)n1 (centres unmarked) | Escherichia coli ATCC 10536 | 0.13 µg/mL |
| C[n+]1c(N)cc(N)nc1SCC1=C(C(=O)[O-])N2C(=O)C(NC(=O)/C(=N\OC(C)(C)C(=O)O)c3csc(N)n3)[C@H]2SC1 (some centres unmarked) | Escherichia coli ATCC 10536 | 0.063 µg/mL |
| C=CC[n+]1c(N)cc(N)nc1SCC1=C(C(=O)[O-])N2C(=O)C(NC(=O)/C(=N\OC(C)(C)C(=O)O)c3csc(N)n3)C2SC1 (centres unmarked) | Escherichia coli ATCC 10536 | 0.13 µg/mL |

---

# MIC per record follows
- System: Serratia marcescens ATCC 27117
- Experiment Description: Antibacterial activity, MIC
- Type: cell-based
- Setup Conditions: ATCC27117, ATCC 27117, agar two-fold dilution, 37° C., 20 hours, read-out: MIC

| Molecule | MIC |
| --- | --- |
| CC[n+]1c(N)cc(N)nc1SCC1=C(C(=O)[O-])N2C(=O)C(NC(=O)/C(=N\OC(C)(C)C(=O)O)c3csc(N)n3)C2SC1 (stereo not drawn) [Compound I-2] | 0.13 mg/L |
| C=CC[n+]1c(N)cc(N)nc1SCC1=C(C(=O)[O-])N2C(=O)C(NC(=O)/C(=N\OCC)c3nsc(N)n3)C2SC1 (stereo not drawn) [Compound I-23] | 1 mg/L |
| CCC[n+]1c(N)cc(N)nc1SCC1=C(C(=O)[O-])N2C(=O)C(NC(=O)/C(=N\OCC)c3nsc(N)n3)C2SC1 (stereo not drawn) [Compound I-22] | 0.5 mg/L |

---

Read-out record for Escherichia coli ATCC 10536: MIC

| Compound | Assayed System | MIC / µg/mL |
| --- | --- | --- |
| CO/N=C(\C(=O)NC1C(=O)N2C(C(=O)[O-])=C(CSc3nc(N)cc(N)[n+]3N)CSC12)c1csc(N)n1 (stereo not drawn) [Compound I-19] | Escherichia coli ATCC 10536 | 0.13 |
| CCO/N=C(\C(=O)NC1C(=O)N2C(C(=O)[O-])=C(CSc3nc(N)cc(N)[n+]3CC)CSC12)c1csc(N)n1 (stereo not drawn) [Compound I-12] | Escherichia coli ATCC 10536 | 0.063 |
| COc1cccc(OC)c1-[n+]1c(N)cc(N)nc1SCC1=C(C(=O)[O-])N2C(=O)C(NC(=O)/C(=N\OC(C)(C)C(=O)O)c3csc(N)n3)C2SC1 (stereo not drawn) [Compound I-43] | Escherichia coli ATCC 10536 | 0.5 |
| Cc1c(N)nc(SCC2=C(C(=O)[O-])N3C(=O)C(NC(=O)/C(=N\OC(C)(C)C(=O)O)c4csc(N)n4)C3SC2)[n+](C)c1N (stereo not drawn) [Compound I-30] | Escherichia coli ATCC 10536 | 0.063 |
| CC[n+]1c(N)cc(N)nc1SCC1=C(C(=O)[O-])N2C(=O)C(NC(=O)/C(=N\OC(C)(C)C(=O)O)c3csc(N)n3)C2SC1 (stereo not drawn) [Compound I-2] | Escherichia coli ATCC 10536 | 0.063 |
| CC[n+]1c(N)cc(N)nc1SCC1=C(C(=O)[O-])N2C(=O)C(NC(=O)/C(=N\OC(C)(C)C(=O)O)c3nsc(N)n3)C2SC1 (stereo not drawn) [Compound I-27] | Escherichia coli ATCC 10536 | 0.13 |

---

- Test system: Bacillus cereus ATCC 11778
- Experiment Description: Antibacterial activity, MIC
- Type: cell-based
- Setup Conditions: ATCC11778, ATCC 11778, agar two-fold dilution, 37° C., 20 hours, read-out: MIC
compounds and their reported MIC

| Compound | Uom | Modifier | MIC |
| --- | --- | --- | --- |
| CO/N=C(\C(=O)NC1C(=O)N2C(C(=O)[O-])=C(CSc3nc(N)cc(N)[n+]3C)CSC12)c1csc(N)n1 (stereo not shown) | µg/mL | = | 32 |
| CCO/N=C(\C(=O)NC1C(=O)N2C(C(=O)[O-])=C(CSc3nc(N)cc(N)[n+]3N)CSC12)c1csc(N)n1 (stereo not shown) | µg/mL | = | 4 |
| CCC[n+]1c(N)cc(N)nc1SCC1=C(C(=O)[O-])N2C(=O)C(NC(=O)/C(=N\OCC)c3nsc(N)n3)C2SC1 (stereo not shown) | µg/mL | = | 16 |
| CC[n+]1c(N)cc(N)nc1SCC1=C(C(=O)[O-])N2C(=O)C(NC(=O)/C(=N\OC(C)(C)C(=O)O)c3nsc(N)n3)C2SC1 (stereo not shown) | µg/mL | > | 128 |

// data source = patent US5202315A
